Recorded values, source patent US20210087291A1.

biological target: T1, huFc fused dimeric human Tim3-ECD (human, UniProt Q8TDQ0 22-202); experiment: SPR Biacore, bivalent Tim3
T1 construct: also called huTim3Fc; bivalent Tim3
observed property: pKd
pKd is a log-scale quantity: -log10 of the concentration expressed in molar.

**Query** State its pKd for this binder: Tim3_0033 (antibody, V domains shown) VH: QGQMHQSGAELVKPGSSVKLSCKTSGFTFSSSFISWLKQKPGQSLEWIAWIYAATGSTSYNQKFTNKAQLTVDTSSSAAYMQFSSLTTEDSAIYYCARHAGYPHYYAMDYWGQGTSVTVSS VL: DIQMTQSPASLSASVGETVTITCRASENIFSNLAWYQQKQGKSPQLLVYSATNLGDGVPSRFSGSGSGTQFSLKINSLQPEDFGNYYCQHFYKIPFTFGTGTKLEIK
**Result** 8.51
